target: T1, monovalent hVISTA-ECD (human VISTA extracellular domain with His tail) (human, UniProt Q9H7M9 33-193); experiment: SPR
T1 construct: analyte flowed over captured antibody; also called huVISTA-His
T1 sequence (Q9H7M9 other isoform, or with tags, fused parts or gaps limits assumed): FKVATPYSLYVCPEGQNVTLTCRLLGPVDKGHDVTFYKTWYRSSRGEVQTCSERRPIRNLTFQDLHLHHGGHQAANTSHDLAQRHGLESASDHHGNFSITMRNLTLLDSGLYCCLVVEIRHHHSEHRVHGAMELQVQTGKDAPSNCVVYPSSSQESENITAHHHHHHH
measured_endpoint: KD ratio (pH 7.4/pH 6.0)

[[record]]
binder = "P1-065329 (41F11_VH_D31E/S35Y/Y50W/S55E/A60H/Y100E/F100aG VK_A64G) (antibody, V domains shown, Kabat positions; also called P1-065329-1) VH: QVQLVESGGGLVKPGGSLRLSCAASGFTFSEYYMYWIRQAPGKGLEWVSWISNSGEPIYYHDSVKGRFTISRDNAKNSLYLQMNSLRAEDTAVYYCARDLPGWEGDLWGRGTLVTVSS VL: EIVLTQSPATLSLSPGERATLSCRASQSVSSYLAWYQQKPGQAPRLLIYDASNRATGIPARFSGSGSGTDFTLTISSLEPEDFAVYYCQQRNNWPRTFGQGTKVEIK"
measured_endpoint = "KD ratio (pH 7.4/pH 6.0)"
result = 40.2

[[record]]
binder = "P1-065332 (41F11_VH_T28P/Y50W/S55E/A60H/Y100E VK_A64G) (antibody, V domains shown, Kabat positions; also called P1-065332-1) VH: QVQLVESGGGLVKPGGSLRLSCAASGFPFSDYYMSWIRQAPGKGLEWVSWISNSGEPIYYHDSVKGRFTISRDNAKNSLYLQMNSLRAEDTAVYYCARDLPGWEFDLWGRGTLVTVSS VL: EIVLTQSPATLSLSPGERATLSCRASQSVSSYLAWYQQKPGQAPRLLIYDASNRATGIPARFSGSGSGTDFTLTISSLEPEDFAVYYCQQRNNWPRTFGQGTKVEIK"
measured_endpoint = "KD ratio (pH 7.4/pH 6.0)"
result = 1.11

[[record]]
binder = "P1-065325 (41F11_VH_D31E/Y50W/S55E/A60H/Y100E VK_A64G) (antibody, V domains shown, Kabat positions; also called P1-065325-1) VH: QVQLVESGGGLVKPGGSLRLSCAASGFTFSEYYMSWIRQAPGKGLEWVSWISNSGEPIYYHDSVKGRFTISRDNAKNSLYLQMNSLRAEDTAVYYCARDLPGWEFDLWGRGTLVTVSS VL: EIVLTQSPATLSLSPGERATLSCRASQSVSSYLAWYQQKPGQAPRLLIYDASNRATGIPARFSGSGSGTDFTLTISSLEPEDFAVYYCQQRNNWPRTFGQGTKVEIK"
measured_endpoint = "KD ratio (pH 7.4/pH 6.0)"
result = 1.42

